- Test system: β-galactosidase in CMV-LacZ C2C12 myotubes
- Experimental details: CMV-LacZ secondary screen in C2C12 myotubes (β-Gal stabilizing assay)
- Type: cell-based, mouse
- Conditions used: 0.5 uM; SU9516 analogs, C2C12 CMV-LacZ, N=2
Please note: met applies when CMV-LACZ in Myotubes, value relative to DMSO is 1 or greater, and not met applies otherwise.

Below are worked cases with known answers.
INSERT INTO measurements (molecule, assigned_class) VALUES
  ('Cc1ccc(/C=C2\C(=O)Nc3ccccc32)o1 [MLS000391588-01]', 'not met'),
  ('Cc1cc(C)c(/C=C2\C(=O)Nc3ccccc32)[nH]1 [NCGC00094381-03]', 'not met'),
  ('O=C1Nc2ccccc2/C1=C\c1cccn1-c1ccc(OC(F)(F)F)cc1 [MLS000546982-01]', 'met'),
  ('COc1ccc(C(=O)/C=C2/C(=O)Nc3ccccc32)cc1OC [MLS001163860-01]', 'met'),
  ('O=Nc1c(-c2c(O)[nH]c3cc(Br)ccc23)[nH]c2ccccc12 [NCGC00094112-04]', 'met');

Assess whether reported CMV-LACZ in Myotubes, value relative to DMSO for CCN(CC)CCNC(=O)c1c(C)[nH]c(/C=C2\C(=O)Nc3ccc(F)cc32)c1C [NCGC00164631-04] sits at 1 or higher. met

// inclusive: CMV-LACZ in Myotubes, value relative to DMSO at least 1? input: O=C1Nc2ccccc2/C1=C/c1cccnc1 [MLS000682748-01] not met

Determine whether measured CMV-LACZ in Myotubes, value relative to DMSO meets or exceeds 1 for O=C1Nc2ccccc2/C1=C/c1ccc([N+](=O)[O-])cc1 [MLS001194544-01] met

----------
Provide the reported CMV-LACZ in Myoblasts (β-galactosidase activity relative to DMSO) of each item.
- Tested on: β-galactosidase in CMV-LacZ C2C12 myoblasts
- Experimental details: CMV-LacZ secondary screen in C2C12 myoblasts (β-Gal stabilizing assay)
- Type: cell-based, mouse
- Conditions used: 20 uM; CMV-LacZ C2C12 myoblasts
Answers are plain numbers.

INSERT INTO assay_data (compound, target_or_system, obs_value) VALUES
  ('CCC(=O)c1ccc(OCC(O)CN2CC(C)OC(C)C2)cc1.O=C(O)C(=O)O (stereo not shown)', 'β-galactosidase in CMV-LacZ C2C12 myoblasts', 0.9811);

Batch: CMV-LACZ in Myoblasts (β-galactosidase activity relative to DMSO) for all items listed.
1. CC1CCN(C(CNS(=O)(=O)c2ccccc2)c2ccccc2)CC1 (stereo not shown)
2. Cc1ccccc1S(=O)(=O)N1C[C@H]2CON(C)[C@H]2C[C@H]1c1cccc(-c2ccccc2)c1
3. CCN(CC)C(=O)c1sc2nc(-c3ccc(OC)cc3)cn2c1C

1. 1.2159
2. 1.0123
3. 0.7500

// batch mode: one CMV-LACZ in Myoblasts (β-galactosidase activity relative to DMSO) value per listed entry
1. CC1(C)Cc2c(c(N3CCOCC3)nc3sc(C(=O)Nc4ccccc4)c(N)c23)CO1
2. CCc1nc2ccccc2c(C(=O)NCc2ccccc2)c1C
3. O=C(CNC(=O)c1cccc(F)c1)N/N=C/c1cc(Br)ccc1OCc1ccccc1
4. COC(=O)c1ccc(N=Nc2ccccc2)cc1
5. CC(=O)Nc1ccc(-n2c(C)nc(=O)c(-c3ccccc3)c2C)cc1
6. CCCC(=O)OCC(=O)c1[nH]c(C)c(C(C)=O)c1C
7. CC(C)(C)Nc1nc(-c2ccc3c(c2)CCN3C(=O)C2CC2)cs1
8. c1ccc(-c2cc(-c3nc4ccccc4[nH]3)c3ccccc3n2)cc1

1. 0.9881
2. 1.1407
3. 0.8030
4. 1.0241
5. 0.6919
6. 0.6390
7. 1.1863
8. 1.1077

----------
- Test system: α7 integrin (LacZ reporter in α7+/LacZ myotubes)
- Experimental details: Myotube α7 integrin FDG assay (Burkin assay in myotubes, 96-well)
- Assay type: cell-based, mouse
- Conditions used: myotubes, 5 uM
Result type: Burkin Assay in Myotubes, α7 integrin LacZ reporter signal relative to DMSO

// below: answered compounds
INSERT INTO assay_data (compound, obs_value) VALUES
  ('Cc1ccccc1OCC(=O)Nc1nnc(-c2ccco2)s1 [MLS000333610-01]', 1.003),
  ('CC(=O)Nc1ccc(N(C(=O)c2cnccn2)C(C(=O)NC2CCCCC2)c2ccc(F)cc2)cc1 (centres unmarked) [MLS001225507-01]', 1.013),
  ('CC1(C)CC(=O)C=C(Nc2ccc(C(=O)O)c(O)c2)C1 [MLS001198693-01]', 1.011);

For every record below, what is its Burkin Assay in Myotubes, α7 integrin LacZ reporter signal relative to DMSO?
1. O=c1[nH]c(CN2CCCCC2)nc2c1C1(CCCCC1)Cc1ccccc1-2 [MLS000028160-01]
2. Cn1ccc(C(=O)Nc2cccnc2Cl)n1 [MLS001147478-01]
3. CCOC(=O)c1cc(C(=O)OCC)c(=O)[nH]c1SCc1ccccc1 [MLS001008109-01]
4. O=C(O)CC1(c2ccccc2)C(=O)c2ccccc2C1=O [MLS000052969-01]
5. NS(=O)(=O)c1ccc(NC(=O)CN2CCc3ccccc32)cc1 [MLS000850522-01]
6. CCc1c(C)sc(NC(=O)c2ccco2)c1C#N [MLS001240181-01]
7. COc1ccc(OC)c(S(=O)(=O)Nc2c(NC3CCCCC3)c3ccccc3oc2=O)c1 [MLS001095705-01]

0.9162
0.9933
1.182
0.9184
1.11
1.643
1.073

List the reported Burkin Assay in Myotubes, α7 integrin LacZ reporter signal relative to DMSO of each compound below.
1. COc1ccc(C(=O)Cn2nnc(-c3ccccc3NC(=O)c3ccco3)n2)cc1 [MLS000072290-01]
2. CCCn1c(-c2cc(OC)c(OC)c(OC)c2)nc2c1c(=O)[nH]c(=O)n2Cc1ccccc1 [MLS001174740-01]
3. CS(=O)(=O)c1ccc(Cl)c(NC(=O)CSc2nncn2-c2ccccc2)c1 [MLS001177364-01]
4. COc1ccc(NC(=O)c2cccc(N3C(=O)c4ccc(C(=O)Nc5ccc(OC)c(O)c5)cc4C3=O)c2)cc1O [MLS001124732-01]
5. NC(=O)c1sc2nc3c(cc2c1N)CCC3 [MLS000707378-01]
6. CN1C(=O)N(CC(=O)N2CCN(S(=O)(=O)c3ccc(Cl)s3)CC2)C(=O)C12CCCCC2 [MLS002162890-01]
7. CC(C)c1ccc(OC(=O)c2cccc(S(=O)(=O)N3CCN(C)CC3)c2)cc1 [MLS001130011-01]

1: 0.9096; 2: 0.8574; 3: 1.235; 4: 0.8759; 5: 0.8899; 6: 0.9351; 7: 0.8834

----------
Exercise: for every item that follows, state its recorded CMV-LACZ in Myotubes, signal relative to DMSO.
- Test system: β-galactosidase in CMV-LacZ C2C12 myotubes
- Experimental details: CMV-LacZ secondary screen in C2C12 myotubes (β-Gal stabilizing assay)
- Format: cell-based, mouse
- Conditions used: 10 uM; C2C12 CMV-LacZ myotubes; fold relative to DMSO
- Excerpt: In order to determine compounds that acted to stabilize β-gal in myogenic cells, a CMV-LacZ C2C12 cell line was used in a secondary screen. The EGFP gene from the pEGFP (Clontech) vector was replaced by LACZ PCR product with digests of the vector/PCR product performed using EcoRI (NEB) and NotI (NEB) and ligated using T4 DNA Ligase (NEB) following standard procedures to produce the CMV-LACZ vector. […]

Some compounds with known CMV-LACZ in Myotubes, signal relative to DMSO results, for comparison:
INSERT INTO results (compound, obs_value) VALUES
  ('O=C(Nc1cc(-c2nc3ccccc3s2)ccc1Cl)c1ccc2c(c1)OCO2 [MLS000560266-01]', 1.0224),
  ('CCOc1ccccc1NC(=O)COC(=O)CNS(=O)(=O)c1ccc(C)cc1 [MLS000393567-01]', 0.9858),
  ('COc1ccc(CN2CCNC(=O)C2CC(=O)NCCc2c[nH]c3ccccc23)c(OC)c1 (stereo not drawn) [MLS000734270-01]', 1.0885),
  ('O=C(CNC(=O)c1cccc(F)c1)N/N=C/c1cc(Br)ccc1OCc1ccccc1 [MLS000591667-01]', 1.0152),
  ('O=Cc1cn(Cc2ccc(F)cc2Cl)c2ccccc12 [MLS000676974-01]', 0.4574);

# batch: return CMV-LACZ in Myotubes, signal relative to DMSO for each of the 7 compounds below
1. CC1Cc2ccccc2N1C(=O)CSc1nnc(N)s1 (stereo not drawn) [MLS001160611-01]
2. CC1CCN(C(CNS(=O)(=O)c2ccccc2)c2ccccc2)CC1 (stereo not drawn) [MLS002171615-01]
3. Cc1ccc(N2C(=O)C3NN=C(C(=O)OCc4ccccc4)C3C2=O)cc1 (stereo not drawn) [MLS000588210-01]
4. CC(NC(=O)c1cn(C)c2ccc(S(=O)(=O)N3CCCC3)cc2c1=O)c1ccccc1 (stereo not drawn) [MLS000913052-01]
5. O=C(COC(=O)Cn1cnc2ccccc21)Nc1cccc([N+](=O)[O-])c1 [MLS001005283-01]
6. O=C(Nc1ccccc1F)c1ccc([N+](=O)[O-])s1 [MLS000703499-01]
7. Cn1cc(CN2CCC(C(=O)Nc3cccc(-c4cscn4)c3)CC2)cn1 [MLS001105912-01]

1. 0.9661
2. 0.9582
3. 1.0815
4. 1.287
5. 0.9051
6. 0.9968
7. 1.0857
